Provenance of the data: ChEMBL document CHEMBL2407050

experiment: Cytotoxicity against mouse B lymphocytes after 48 hrs by CCK-8 assay; conditions: b-cell
metric name: Activity

C[C@@H]1[C@H](O)[C@@H](O)CC(C)(C)[C@H]1/C=C/[C@H](C)O :: Non-toxic
C[C@H](O)/C=C/[C@@]1(O)[C@H](C)[C@H](O)[C@@H](O)CC1(C)C :: Non-toxic
C[C@@H]1[C@H](O)[C@@H](O)CC(C)(C)[C@@]1(O)/C=C/[C@@H](C)O :: Non-toxic

---

test system: B-cell; experiment: Inhibition of LPS-induced mouse B lymphocytes proliferation after 48 hrs by CCK-8 assay; assay type: functional
Active and inactive are the calls of the source. The rule behind the calls is not given here.
Outcome (select one): T for active, F for inactive

The examples below pair each entry with its known result.
C[C@H](O)CCC1=C(CO)C[C@@H](O)CC1(C)C :: T
COC(=O)/C=C(C)\C=C\[C@@]1(O)C(C)=CC(=O)CC1(C)C :: F
C[C@@H](O)/C=C/[C@@]1(O)[C@@H](C)C[C@H](O)CC1(C)C :: T

Consider the additional molecule presented here.
Query block: Dear colleague, could you share the recorded outcome for CC1=C(CC[C@@H](C)O)C(C)(C)C[C@H](O)[C@@H]1O when you have a moment?
Result block: T
